# Target Entity: recombinant eIF4E (Homo sapiens (Human))
# Experimental Protocol: Fluorescence polarization competition assay for eIF4E binding potency
# Condition Notes: fluorescence polarization competition, 75 nM recombinant eIF4E, 20 nM EDA-m7GDP-ATTO-550; IC50 class; read-out: elF4E FP

[
  {
    "Molecule": "Cc1nc2ccc(S(=O)(=O)N(C)Cc3ccccc3)c(C#N)c2c(=O)n1CCOc1ccc(Cl)cc1-c1ccnc2c(C(=O)O)csc12 [compound 283]",
    "IC50": "< 50 nM"
  },
  {
    "Molecule": "Cc1nc2cc(C(F)(F)F)c(CCN(C)C)cc2c(=O)n1CCOc1ccc(Cl)cc1-c1ccnc2c(C(=O)O)csc12 [compound 858]",
    "IC50": "< 50 nM"
  },
  {
    "Molecule": "Cc1cc(-c2cc(Cl)ccc2OCCn2c(C)nc3cc(C(F)(F)F)c(-c4cncc(C)c4C)c(C#N)c3c2=O)c2scc(C(=O)O)c2n1 [compound 903]",
    "IC50": "< 50 nM"
  },
  {
    "Molecule": "Cc1nc2ccccc2c(=O)n1CCOc1ccc(Cl)cc1-c1cccc(C(=O)O)c1 [compound 72]",
    "IC50": "> 1000 nM"
  },
  {
    "Molecule": "Cc1nc2cnc(OC3CCN(CC(F)(F)F)CC3)c(C#N)c2c(=O)n1CCOc1ccc(Cl)cc1-c1ccnc2c(C(=O)O)csc12 [compound 820]",
    "IC50": "< 50 nM"
  },
  {
    "Molecule": "CCc1cc(-c2cc(Cl)ccc2OCCn2c(C)nc3c(C)nc(-c4ccccc4)c(C#N)c3c2=O)c2scc(C(=O)O)c2n1 [compound 1015]",
    "IC50": "< 50 nM"
  },
  {
    "Molecule": "Cc1cc(-c2cc(Cl)ccc2OCCn2c(C)nc3cc(C(F)(F)F)c(Br)c(C#N)c3c2=O)c2scc(C(=O)O)c2n1 [compound 876]",
    "IC50": "50 to 1000 nM"
  },
  {
    "Molecule": "Cc1cc(-c2cc(Cl)ccc2OCCn2c(C)nc3cc(C(F)(F)F)c(-n4ccnc4)c(C#N)c3c2=O)c2scc(C(=O)O)c2n1 [compound 632]",
    "IC50": "< 50 nM"
  },
  {
    "Molecule": "CNC(=O)Cc1cc2c(=O)n(CCOc3ccc(Cl)cc3-c3cccc(C(=O)O)c3)cnc2cn1 [compound 137]",
    "IC50": "50 to 1000 nM"
  },
  {
    "Molecule": "Cc1nc2cnc(C3CC3)c(C#N)c2c(=O)n1CCOc1ccc(Cl)cc1-n1cnc2c(C(=O)O)cccc21 [compound 756]",
    "IC50": "< 50 nM"
  },
  {
    "Molecule": "Cc1cc(-c2cc(Cl)ccc2OCCn2c(C)nc3c(-c4ccccc4)nc(N4CCN(C)CC4)c(C#N)c3c2=O)c2scc(C(=O)O)c2n1 [compound 1217]",
    "IC50": "< 50 nM"
  },
  {
    "Molecule": "CCc1cc(-c2cc(Cl)ccc2OCCn2c(C)nc3cnc(N)c(C#N)c3c2=O)c2scc(C(=O)O)c2n1 [compound 1071]",
    "IC50": "50 to 1000 nM"
  },
  {
    "Molecule": "Cc1nc2ccc(S(C)(=O)=O)c(C#N)c2c(=O)n1CCOc1ccc(Cl)cc1-c1ccnc2c(C(=O)O)csc12 [compound 195]",
    "IC50": "< 50 nM"
  }
]

* * *

# Target Entity: recombinant eIF4E (Homo sapiens (Human))
# Experimental Protocol: Fluorescence polarization competition assay for eIF4E binding potency
# Condition Notes: inhibition of eIF4E/EDA-m7GDP-ATTO-550 binding by 50%; Table 4B calculated values; read-out: IC50
Reported Endpoint: log10(IC50) (log10 of the value in nM)

[
  {
    "Compound": "Cc1nc2cc(C(F)(F)F)c(CN3CCN(C)CC3)c(C#N)c2c(=O)n1CC#Cc1ccc(Cl)cc1-c1ccnc2c(C(=O)O)csc12 [compound 615]",
    "Target Entity": "recombinant eIF4E (Homo sapiens (Human))",
    "log10(IC50)": 1.21
  },
  {
    "Compound": "Cc1cc(-c2cc(Cl)ccc2OCCn2c(C)nc3cc(C(F)(F)F)c(-c4ccnc(C)c4C)c(C#N)c3c2=O)c2scc(C(=O)O)c2n1 [compound 686]",
    "Target Entity": "recombinant eIF4E (Homo sapiens (Human))",
    "log10(IC50)": 1.42
  },
  {
    "Compound": "Cc1cc(-c2cc(Cl)ccc2OCCn2c(C)nc3cnc(C4CCC4)c(C#N)c3c2=O)c2scc(C(=O)O)c2n1 [compound 912]",
    "Target Entity": "recombinant eIF4E (Homo sapiens (Human))",
    "log10(IC50)": 0.95
  },
  {
    "Compound": "Cc1cc(-c2cc(Cl)ccc2OCCn2c(C)nc3cnc(N4CC(OC(F)F)C4)c(C#N)c3c2=O)c2scc(C(=O)O)c2n1 [compound 1041]",
    "Target Entity": "recombinant eIF4E (Homo sapiens (Human))",
    "log10(IC50)": 0.79
  },
  {
    "Compound": "Cc1nc2cc(C(F)(F)F)c(N3CCN(c4cccnc4)CC3)c(C#N)c2c(=O)n1CCOc1ccc(Cl)cc1-c1cccc(C(=O)O)c1 [compound 380]",
    "Target Entity": "recombinant eIF4E (Homo sapiens (Human))",
    "log10(IC50)": 1.47
  },
  {
    "Compound": "CSCc1cc(F)c2cc(C)n(CCOc3ccc(Cl)cc3-c3ccnc4c(C(=O)O)csc34)c(=O)c2c1C#N [compound 534]",
    "Target Entity": "recombinant eIF4E (Homo sapiens (Human))",
    "log10(IC50)": 1.48
  },
  {
    "Compound": "Cc1cc(-c2cc(Cl)ccc2OCCn2c(C)nc3cc(C(F)(F)F)cc(C#N)c3c2=O)c2scc(C(=O)O)c2c1F [compound 333]",
    "Target Entity": "recombinant eIF4E (Homo sapiens (Human))",
    "log10(IC50)": 1.40
  },
  {
    "Compound": "N#Cc1cc2c(=O)n(CCOc3ccc(Cl)cc3-c3cc(C(=O)O)cs3)cnc2cn1 [compound 83]",
    "Target Entity": "recombinant eIF4E (Homo sapiens (Human))",
    "log10(IC50)": 3.41
  },
  {
    "Compound": "Cc1nc2cc(C(F)(F)F)c(N3CCN(CC(F)F)CC3)c(C#N)c2c(=O)n1CCOc1ccc(Cl)cc1-c1cccc(C(=O)O)c1 [compound 377]",
    "Target Entity": "recombinant eIF4E (Homo sapiens (Human))",
    "log10(IC50)": 1.79
  },
  {
    "Compound": "O=C(O)c1cccc(-c2cc(Cl)ccc2OCCn2ccc3nnccc3c2=O)c1 [compound 15]",
    "Target Entity": "recombinant eIF4E (Homo sapiens (Human))",
    "log10(IC50)": 3.24
  },
  {
    "Compound": "Cc1nc2cc(C(F)(F)F)cc(C#N)c2c(=O)n1CCOc1ccc(Cl)cc1N1CCC(CC(=O)O)CC1 [compound 328]",
    "Target Entity": "recombinant eIF4E (Homo sapiens (Human))",
    "log10(IC50)": 3.12
  },
  {
    "Compound": "Cc1nc2c(-c3cncnc3)ccc(C#N)c2c(=O)n1CCOc1ccc(Cl)cc1-c1ccnc2c(C(=O)O)csc12 [compound 204]",
    "Target Entity": "recombinant eIF4E (Homo sapiens (Human))",
    "log10(IC50)": 1.65
  },
  {
    "Compound": "Cc1nc2cncc(C#N)c2c(=O)n1CC#Cc1ccc(Cl)cc1-c1ccnc2c(C(=O)O)csc12 [compound 624]",
    "Target Entity": "recombinant eIF4E (Homo sapiens (Human))",
    "log10(IC50)": 0.60
  },
  {
    "Compound": "Cc1cc(-c2cc(Cl)ccc2OCCn2c(C)nc3c(C)nc(-c4cc(Cl)ccc4F)c(C#N)c3c2=O)c2scc(C(=O)O)c2n1 [compound 997]",
    "Target Entity": "recombinant eIF4E (Homo sapiens (Human))",
    "log10(IC50)": 1.09
  }
]

* * *

Each entry below carries its reported IC50.
# Target Entity: recombinant eIF4E (Homo sapiens (Human), UniProt P06730)
# Sequence (P06730 whole entry): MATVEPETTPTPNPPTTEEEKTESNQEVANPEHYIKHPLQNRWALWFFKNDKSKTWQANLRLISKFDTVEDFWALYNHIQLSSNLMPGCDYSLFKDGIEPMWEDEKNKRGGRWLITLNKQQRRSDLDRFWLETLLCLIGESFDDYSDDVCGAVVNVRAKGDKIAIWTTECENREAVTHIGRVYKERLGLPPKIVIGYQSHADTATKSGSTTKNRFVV
# Experimental Protocol: Fluorescence polarization competition assay for eIF4E binding potency
# Condition Notes: inhibition of eIF4E/EDA-m7GDP-ATTO-550 binding; calculated IC50 values, Table 4B; read-out: IC50

[
  {
    "Smiles Code": "Cc1nc2cnc(N3CC4(C3)CN(C3CC3)C4)c(C#N)c2c(=O)n1CCOc1ccc(Cl)cc1-c1ccnc2c(C(=O)O)csc12",
    "IC50 (µM)": 0.0181
  },
  {
    "Smiles Code": "Cc1nc2cc(CN3CC(F)(F)C3)c(OC(F)F)c(C#N)c2c(=O)n1CCOc1ccc(Cl)cc1-c1ccnc2c(C(=O)O)csc12",
    "IC50 (µM)": 0.0384
  },
  {
    "Smiles Code": "Cc1nc2cnc(N3CCC4(CC3)CCN4CC(F)F)c(C#N)c2c(=O)n1CCOc1ccc(Cl)cc1-c1ccnc2c(C(=O)O)csc12",
    "IC50 (µM)": 0.0196
  },
  {
    "Smiles Code": "Cc1sc2c(-c3cc(Cl)ccc3OCCn3c(C)nc4c(C)c(C(F)(F)F)c(N5CCN(C)CC5)c(C#N)c4c3=O)ccnc2c1C(=O)O",
    "IC50 (µM)": 0.0346
  },
  {
    "Smiles Code": "Cc1nc2cnc(N(C)CCN(C)CC(F)(F)F)c(C#N)c2c(=O)n1CC#Cc1ccc(Cl)cc1-c1ccnc2c(C(=O)O)csc12",
    "IC50 (µM)": 0.029
  },
  {
    "Smiles Code": "Cc1nc2cnc(N(C)C3CCN(CC(F)(F)c4ccccc4)CC3)c(C#N)c2c(=O)n1CC#Cc1ccc(Cl)cc1-c1ccnc2c(C(=O)O)csc12",
    "IC50 (µM)": 0.0239
  }
]
